I'd appreciate it if you could supply EC50 values for the items below.
target: T1, human BTN3A1 expressed on HEK293 cells (human, UniProt O00481 30-513); assay: flow cytometry, HEK293 cells overexpressing human BTN3A1
T1 construct: whole, on cells; also called BTN3A1-expressing HEK293 cells; human BTN3A1-overexpressing cells
T1 sequence (O00481 30-513): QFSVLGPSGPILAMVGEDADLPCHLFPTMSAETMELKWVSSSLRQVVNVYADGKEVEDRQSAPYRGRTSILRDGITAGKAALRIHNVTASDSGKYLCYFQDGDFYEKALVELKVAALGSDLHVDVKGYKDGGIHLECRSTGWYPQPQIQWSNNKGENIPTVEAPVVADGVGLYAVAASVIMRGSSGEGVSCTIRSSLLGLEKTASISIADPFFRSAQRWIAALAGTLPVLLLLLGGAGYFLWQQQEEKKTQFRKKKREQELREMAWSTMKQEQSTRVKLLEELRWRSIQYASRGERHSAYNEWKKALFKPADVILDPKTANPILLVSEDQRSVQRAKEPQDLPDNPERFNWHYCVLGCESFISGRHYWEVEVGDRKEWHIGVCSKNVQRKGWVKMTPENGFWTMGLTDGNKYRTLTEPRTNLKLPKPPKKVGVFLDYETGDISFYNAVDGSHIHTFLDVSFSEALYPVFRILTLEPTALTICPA
State the value with its unit after it.

*Q* Would you kindly share the measured EC50 for 20A3 (a human-rabbit chimeric antibody, parent) (antibody, human IgG1, kappa, V domains shown, Rabbit variable regions on the human IgG1 constant region with L234F/L235E/P331S (Eu numbering) and human Ckappa) VH: QSVEESGGRLVTPGTPLTLTCTASGFTINNYYMNWVRQAPGKGLEWIGIIYGSDNTYYASWAKGRFTISKTSTTVDLIMTSPTTEDTATYFCVRNLDYSSAYFHIWGPGTLVTVSS VL: QVLTQTPSPVSAAVGGTVSISCQASQSVYNNNRLAWYQQKPGQPPNLLIYEASKLASGVPSRFKGSGSGTQFTLIISEVQCEDAATYYCQGYYSGFIYPFGGGTEVVVKR ?
*A* 11.7 nM

*Q* I am curious: what EC50 value has been reported for 17G4 (a human-rabbit chimeric antibody, parent) (antibody, human IgG1, kappa, V domains shown, Rabbit variable regions on the human IgG1 constant region with L234F/L235E/P331S (Eu numbering) and human Ckappa) VH: QSLEESGGRLVTPGTPLTLTCTASGFSLNDYYITWVRQAPGKGLEWIGVIYGSSNTVYASWAKGRFTISKTSTMVDLRITSPTTEDTATYFCARGYLASSADIWGPGTLVTVSL VL: QVLTQTPSPVSAAVGGTVTINCQSSQSVYNNNRLAWYQQKPGQPPKLLIYDASTLASGVPSRFKGSGSGTDFTLTISDLECADAATYYCQTYYSGYIWAFGGGTEVVVKR ?
*A* 17.4 nM

*Q* Quick one: EC50 for 20A3-H2L2 (antibody, human IgG1, kappa, V domains shown, Humanized; human IgG1 constant region with L234F/L235E/P331S and human Ckappa; also called 20A3's humanized antibody) VH: EVQLVESGGGLVQPGGSLRLSCAASGFTINNYYMNWVRQAPGKGLEWVSIIYGSDNTYYASWAKGRFTISKDNSKNTVYLQMNSLRAEDTAVYYCVRNLDYSSAYFHIWGQGTLVTVSS VL: DIQLTQSPSSLSASVGDRVTITCQASQSVYNNNRLAWYQQKPGKPPKLLIYEASKLASGVPSRFSGSGSGTDFTLTISSLQPEDVATYYCQGYYSGFIYPFGGGTKVEIKR ?
*A* 10.2 nM
